assay: L6 cytotoxicity assay; type: cell-based, rat; details: rat; mean of duplicate assays
recorded.metric: IC50 (µM)

1. O=C1C(Br)=CC2(C=C1Br)CCNC1=C2C2=NCCc3cn(C4C5[N+]6=C7C8=C(NCCC84C(O)C(Br)C5(O)O)C(=O)c4[nH]cc(c47)CC6)c(c32)C1=O (stereo not shown) ... 2.1
2. O=C1C2=C3C4=[N+](CCc5c[nH]c1c54)[C@@H]1C(=O)C=C4S[C@@H](C[C@@]43C1O)N2 (stereo partly shown) ... 11
3. CSC1=CC(=O)C(Br)=C[C@]12C=CNC1=C2C2=NCCc3cn(C)c(c32)C1=O ... 6.1
4. O=C1C2=C(C3=NCCc4c[nH]c1c43)c1c(cc(Br)c(O)c1Br)CCN2 ... 41
5. COc1cc([C@@H]2c3cc4c(cc3[C@H](O)[C@H]3COC(=O)[C@H]23)OCO4)cc(OC)c1OC [podophyllotoxin, reference compound] ... 0.01
6. Cn1cnc(SC2[C@H]3C(=O)C=C4S[C@H]5C[C@]42C2=C(N5)C(=O)c4[nH]cc5c4C2=[N+]3CC5)c1C[C@H](N)C(=O)O (single isomer, unassigned; (+)) [Compound 12, (+)-discorhabdin H2] ... 17
7. CCCCCNC1[C@@H]2[N+]3=C4C5=C(NCC[C@@]51[C@@H](O)[C@@H](Br)C2(O)O)C(=O)c1[nH]cc(c14)CC3 (stereo partly shown) ... 0.81
